Target: Bcl-2 protein (histag-Bcl-2, UniProtKB P10415) (Homo sapiens (Human), UniProt P10415)
Sequence (P10415 whole entry): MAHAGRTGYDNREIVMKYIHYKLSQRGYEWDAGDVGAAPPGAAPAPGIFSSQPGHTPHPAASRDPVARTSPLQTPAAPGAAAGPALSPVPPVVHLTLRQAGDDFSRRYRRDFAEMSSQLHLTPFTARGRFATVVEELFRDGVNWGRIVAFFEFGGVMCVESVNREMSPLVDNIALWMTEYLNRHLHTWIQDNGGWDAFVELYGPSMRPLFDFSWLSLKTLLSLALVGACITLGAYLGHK
Assay: Inhibition of Bcl-2 by the fluorescence polarisation technique
Format: binding
Details: fluorescence polarisation test; method A, or method B where underlined (underlining not visible); read-out: IC50 (nM) Bcl-2 FP
Counter-ions that a name gives are not always drawn.
This section presents molecules with their documented IC50 values.
Give a bare numeral; the unit nM is implied.

molecule: NC[C@@H]1Cc2ccccc2CN1C(=O)c1ccc(Cl)cc1-n1cc(C(=O)N(c2ccccc2)c2ccc(O)cc2)c2ccccc21
subjectOfTest: Bcl-2 protein (histag-Bcl-2, UniProtKB P10415) (Homo sapiens (Human), UniProt P10415)
unitText: nM
IC50: 11.7

Task item: Fill in the recorded IC50 for this molecule, with Bcl-2 protein (histag-Bcl-2, UniProtKB P10415) (Homo sapiens (Human), UniProt P10415) as test system: `CN1CCN(C[C@@H]2Cc3ccccc3CN2C(=O)c2cc3c(cc2-n2cc(C(=O)N(c4ccccc4)c4ccc(O)cc4)c4cc(F)ccc42)OCO3)CC1`
Reply: 31.1

Task item: Lookup `Cc1ccc(N(C(=O)c2cc(C)n(-c3cc4c(cc3C(=O)N3Cc5ccccc5C[C@H]3CN3CCN(C)CC3)OCO4)c2)c2ccc(O)cc2)cc1`
Reply: 3.9

Task item: And what about the molecule CN1CCN(C[C@@H]2Cc3ccccc3CN2C(=O)c2ccc(Br)cc2-n2cc(C(=O)N(c3ccc(O)cc3)c3ccc4c(ccn4C)c3)c3ccccc32)CC1 [Example 69, hydrochloride] ?
Reply: 9

Task item: Further, for `CN1CCN(C[C@@H]2Cc3ccccc3CN2C(=O)c2ccccc2-n2cc(C(=O)N(c3ccccc3)c3ccc(O)cc3)c3ccccc32)CC1` ?
Reply: 13.2

Task item: // same read-out, input: `COc1ccc(N(C(=O)c2cn(-c3cc4c(cc3C(=O)N3Cc5ccccc5C[C@H]3CN3CCN(C)CC3)OCO4)c3ccccc23)c2ccc(O)cc2)cc1`
Reply: 13.1

###

Test system: RS4;11 leukaemia tumour line
Assay: In vitro cytotoxicity, Microculture Tetrazolium Assay (MTT)
Format: cell-based
Details: Homo sapiens; RS4;11 cells, 48 hours exposure
Where a name gives a salt, the structure may show the parent alone.
// reported IC50 for each item listed
Give the quantity in nM, number only.

The examples below pair each entry with its known result.
compound: CN1CCN(C[C@@H]2Cc3ccccc3CN2C(=O)c2cc3c(cc2-n2cc(C(=O)N(c4ccccc4)c4ccc(O)cc4)c4ccccc42)OCCO3)CC1
unitText: nM
reportedResult: 177
--
compound: Cl.Cn1ccc2cc(N(C(=O)c3cn(-c4cc5c(cc4C(=O)N4Cc6ccccc6C[C@H]4CN4CCOCC4)OCO5)c4c3CCCC4)c3ccc(O)cc3)cnc21 [Example 207, hydrochloride]
unitText: nM
reportedResult: 22.2

Task item: # lookup: IC50 of `CN1CCN(C[C@@H]2Cc3ccccc3CN2C(=O)c2ccccc2-n2cc(C(=O)N(c3ccccc3)c3ccc(O)cc3)c3ccccc32)CC1`
Reply: 246

Task item: Please give the result for `COc1ccc(C(=O)N2Cc3ccccc3C[C@H]2CN)c(-n2cc(C(=O)N(c3ccccc3)c3ccccc3)c3ccccc32)c1` too.
Reply: 966

Task item: Moving on to the next compound: CN1CCN(C[C@@H]2Cc3ccccc3CN2C(=O)c2ccc(Cl)cc2-n2cc(C(=O)N(c3ccccc3)c3ccccc3)c3ccccc32)CC1 [Example 178, dihydrochloride]
Reply: 812

Task item: Next compound up: `CN1CCN(C[C@@H]2Cc3ccccc3CN2C(=O)c2cc3c(cc2-n2cc(C(=O)N(c4ccccc4)c4ccc(O)c(F)c4)c4ccccc42)OCO3)CC1`
Reply: 133

Task item: # repeat for `Cc1cc(C(=O)N(c2ccc(O)cc2)c2ccc3c(ccn3C)c2)cn1-c1cc2c(cc1C(=O)N1Cc3ccccc3C[C@H]1CN1CCN(C)CC1)OCO2`
Reply: 76.6

Task item: How about this compound: `Cc1cc(C(=O)N(c2ccccc2)c2ccc(O)cc2)cn1-c1cc(F)ccc1C(=O)N1Cc2ccccc2C[C@H]1CN1CCN(C)CC1`
Reply: 256

Task item: Also, `Cc1cc(C(=O)N(c2ccc(O)cc2)c2ccc3[nH]ccc3c2)cn1-c1cc(Br)ccc1C(=O)N1Cc2ccccc2C[C@H]1C(=O)N1CCN(C)CC1` please.
Reply: 1880

Task item: Same again, this time with `CCCCN(CCCC)C(=O)c1cn(-c2ccc(NC(=O)CSc3ccccc3)cc2C(=O)N2Cc3ccccc3C[C@H]2CN2CCN(C)CC2)c2ccccc12`
Reply: 2360

Task item: How about this compound: CN1CCN(C[C@@H]2Cc3ccccc3CN2C(=O)c2cc3c(cc2-n2cc(C(=O)N(c4ccccc4)c4ccccc4)c4ccccc42)OCO3)CC1 [Example 177, dihydrochloride]
Reply: 568

Task item: Then this compound: `Cc1ccc(N(C(=O)c2cn(-c3cc4c(cc3C(=O)N3Cc5ccccc5C[C@H]3CN3CCN(C)CC3)OCO4)c3ccccc23)c2ccc3[nH]ccc3c2)cc1`
Reply: 1020

Task item: What do we get for `COc1cc(-n2nc(C(=O)N(c3ccccc3)c3ccccc3)c3ccccc32)c(C(=O)N2Cc3ccccc3C[C@H]2CN)cc1OCc1ccccc1` ?
Reply: 2100

Task item: Here is the next compound: `CN1CCN(C[C@@H]2Cc3ccccc3CN2C(=O)c2ccc(Cl)cc2-n2cc(C(=O)N(c3ccccc3)c3ccc(O)cc3)c3ccccc32)CC1`
Reply: 191

Task item: Here is the next compound: `CN1CCN(C[C@@H]2Cc3ccccc3CN2C(=O)c2cc3c(cc2-n2cc(C(=O)N(c4ccc(O)cc4)c4ccc5[nH]ccc5c4)c4ccccc42)OCO3)CC1`
Reply: 47.1
